Experiment: yeast display, Sf9 membrane polyspecificity reagent, FACS + sequencing; frameworks hold sequencing errors
measured.metric: polyreactivity (PSR sort gate)

{"biopolymer.sequence": "QVQLVESGGGLVQAGGSLRLSCAASGSIFIYYAMGWYRQAPGKEREMVADITFSAGTNTYYADSVKGRFTISRDNAKNTVYLQKNSLKPEDTAVYYCNADRGFIGSITEYDYWGQGTQVTVSS", "polyreactivity (PSR sort gate)": "low polyreactivity"}
{"biopolymer.sequence": "QVQLVESGGGLVQAGGSLRLSCAASGFTFQRYAMGWYRQAPGKERELVAAISGSGGSTYYADSVKGRFTISRDNAKNTVYLQMNSLKPEDTAVYYCAARYKYKDLYRYDYWGQGTQVTVSS", "polyreactivity (PSR sort gate)": "high polyreactivity"}
{"biopolymer.sequence": "QVQLVESGGGLVQAGGSLRLSCAASGSIFPHNAMGWYRQAPGKERVLVASITSRGGITYYADSVKGRFTISRDNAKNTVYLQMNSLKPEDTAVYYCAADLYIYPYDYWGQGTQVTVSS", "polyreactivity (PSR sort gate)": "low polyreactivity"}
{"biopolymer.sequence": "QVQLVESGGGLVQAGGSLRLSCAASGGIFNYYAMGWYRQAPGKERELVAAMTSAGSTYADSVKGRFTISRDNATNTVSLQMNILKPEDTAVYYCNAVGVVVKFGYYLIGYAKWYDYWGQGSQVTVSS", "polyreactivity (PSR sort gate)": "low polyreactivity"}
{"biopolymer.sequence": "QVQLVESGGGLVQAGGSLRLSCAASGYIFDYYAMGWYRQAPGKERELVAAISSSGGTTYYADSVKGRFTISRDNAKNTVYLQMNSLKPEDTEVYYCAARKSRWHRGYYYWGQGTQVTVSS", "polyreactivity (PSR sort gate)": "high polyreactivity"}

Find the recorded polyreactivity (PSR sort gate) belonging to QVQLVESGGGLVQAGGSLRLSCAASGSTFYLNDMGWYRQAPGKERELVAAIDWSGGSTYYAVSVKGRFTISRDNAKNTVYLQMNSLKPEDTAVYYCAARLVYEWRRLDYFIAWDYWGQGTQVTVSS and report it.
low polyreactivity

Find the recorded polyreactivity (PSR sort gate) belonging to QVQLVESGGGLVQAGGSLRLSCAASGSIFYLNAMGWYRQAPGKERELVATISNGGSTNYADSVKGRFTISRDNAKNTVYLQMNSLKPEDTAVYYCATGVIREGDYWGQGTKVTVSS and report it.
low polyreactivity

Find the recorded polyreactivity (PSR sort gate) belonging to QVQLVESGGGLVQAGGSLRLSCAASGITFSYYAMGWYRQAPGKEMELVAAISGRDTRTYYADSVKGRFTISRDNAKNTVYLQMNSLKPEDTAVYYCNAVRKHLLKYDYWGQGTQVTVSS and report it.
high polyreactivity

Find the recorded polyreactivity (PSR sort gate) belonging to QVQLVESGGGLVQAGGSLRLICAASVSTFVRNAMGLYRQAPGKERELVAAISRSGGRTYYADSVKGRFTISRDNAKNTVYLQMNSLKPEDTSVYYCAADGKSVYDYWGQGTQVTVSS and report it.
high polyreactivity

Find the recorded polyreactivity (PSR sort gate) belonging to QVQLVESGGGLVQAGGSLRLSCAASGSIFPRNTMGWYRQAPGKERELVAAMSSGASTYYADSVKGRFTISRDNAKNTVYLQMNSLKPEDTAVYYCAKRYQDTSPKDGENEYWGQGTQVTVSS and report it.
low polyreactivity

Find the recorded polyreactivity (PSR sort gate) belonging to QVQLVESGGGLVQAGGSLRLSCAASGGIFAQYAMGWYRQAPGKEREFVATISTSGGSTYYADSVKGRYTISRDNAKNTVYLQMNSLKPEDTAVYYCARYSYRGTNVRYDYWGQGTQVTVSS and report it.
high polyreactivity

###

Experiment: yeast display, Sf9 membrane polyspecificity reagent, FACS + sequencing; frameworks hold sequencing errors
measured.metric: polyreactivity (PSR sort gate)

{"biopolymer.sequence": "QVQLVESCGGLVQAGGSLRLSCAATGLIIRGNDMVWYRQAPWKERELVAGINSSGSTNYADSVKVRFTISRDNAKNTVYLQMNSLKPEDTAVYYCAARAIVSFDYWGQGTQVTVSS", "experimental.result": "low polyreactivity"}
{"biopolymer.sequence": "QDQLVESGVGLDQAGGSLRLSCAASGRIFRGSAMGWFSQAPGKEREFVAAITKNGGSTYYADSVNARFTISRDNANNTVYVQMNSLKPEDTAVYDCAVRAWDPDTGNSDYWGQGTQGTVSS", "experimental.result": "low polyreactivity"}

###

Experiment: yeast display, Sf9 membrane polyspecificity reagent, FACS + sequencing; frameworks hold sequencing errors

{"biopolymer.sequence": "QVQLVESGGGLDLAGGSLRLSCASSGLTFFYYAMAWYRQAPGKEMEFVASISRSGGSTYYADSVKGRFTISRDNAKNTVSLQKNSLKPEDTAVYYCAAVERRTPGYGYDYWGQGTQVTVSS", "polyreactivity (PSR sort gate)": "high polyreactivity"}
{"biopolymer.sequence": "QVQLVESGGGLVQAGGSLRLSCAASGSNFKRYTMGLYRQAPGKEWELVAAISTSSGSTYYADSVKGRFTISRDNANNSVYLQMNSLKPEDTAVYYCAAVRHRQTYPKYNYWGQGTQVTVSS", "polyreactivity (PSR sort gate)": "high polyreactivity"}

###

Experiment: yeast display, Sf9 membrane polyspecificity reagent, FACS + sequencing; frameworks hold sequencing errors
measured.metric: polyreactivity (PSR sort gate)

{"biopolymer.sequence": "QVQLVESGGGLVQAGGSLRLSCAASGRTFVQNAMGWYRQAPGKERELVASIRYRDGSTYYADSVKGRFTISRDNAKNTVYLQMNSLKPEDTAVYYCAAYLPGWELREYGYWGQGTQVTVSS", "experimental.result": "high polyreactivity"}
{"biopolymer.sequence": "QVQLVESGGGLVQAGGSLRLSCAASGSIFRTYTMGWYRQAPGKEREFVAAISRSGGSTYYADSVKGRFTISRDNAKNTVYLQMNSLKPEDTAVYYCNARCGLGSYGYWGQGTQVTVSS", "experimental.result": "high polyreactivity"}
{"biopolymer.sequence": "QVQLVESGGGLVQAGGSLRLSSAASGRIFWTNAMGWYRQAPGKERELVAGITWRGGSTYYADSVKGRFTISRDNAKNTVSLQMNSLKPEDTAVYYCASRQGWYSGFDYWGQGTQVTVSS", "experimental.result": "high polyreactivity"}

###

Experiment: yeast display, Sf9 membrane polyspecificity reagent, FACS + sequencing; frameworks hold sequencing errors
measured.metric: polyreactivity (PSR sort gate)

{"biopolymer.sequence": "QVQLVESGGGLVQAGGSLRLSCAASGFIFAWYAMGWSRQAPGKERELVADISWGGGSTYYADSVKGRFTISRDNAKNTVYLQMNSLKPEDTAVYYCAATRPATYAAYDYWGQGTQVTVSS", "measured.metric": "polyreactivity (PSR sort gate)", "experimental.result": "high polyreactivity"}
{"biopolymer.sequence": "QVQLVESGGGLVQAGGSLRLSCAASGRIFRTNAMGWYRQAPGKDRELVAAISRSGGSTYYADSVKGRFTISRDNAKNTVYLQMNSLKPEDTAVYYCATRVGKILTTKYGYWGQGTQVTVSS", "measured.metric": "polyreactivity (PSR sort gate)", "experimental.result": "high polyreactivity"}
{"biopolymer.sequence": "QVQLVESGGGLVQAGGSLRLSCAASGGTFSYYAMGWYRQARGKERELDAAISGNGDTTYYADSVKGRFTISRDNAKNTVYLQMNSLKPEDTAVYYCAADGWGFIVGIDYYPYGEGDYWGQGTQVTVSS", "measured.metric": "polyreactivity (PSR sort gate)", "experimental.result": "low polyreactivity"}
{"biopolymer.sequence": "QVQLVESGGGLVQAGGSLRLSCAASGRIFPTYTMGWYRQAPGKERELLAAISGRGGNTYYADSVKGRFTISRDTAKNTVYLQMNSLKPEDTAVYYCAARYPVRNGYWGLGTQVTVSS", "measured.metric": "polyreactivity (PSR sort gate)", "experimental.result": "high polyreactivity"}

Would you kindly look at the next entry?
Find the recorded polyreactivity (PSR sort gate) belonging to QVQLVESGGGLVQAGGSLRLSCAASGYARGWYRQAPGKERELVAAITSGGSTNYADSVKGRFTISRDNAKNTVYLQMNSLKPEDTAVYYCAAAYSLYGHRYDYWGQGTQVTVSS and report it.
low polyreactivity

###

Experiment: yeast display, Sf9 membrane polyspecificity reagent, FACS + sequencing; frameworks hold sequencing errors

{"biopolymer.sequence": "QVQLVESGGGLVQAGGSLRLSCAASGRTFGYYGMGWYRQAPGKERELVAAITGSGGSTYYADSVKGRFTISRDNAKNTVYLQMNSLKPEDTAVYYCGATDLSRWTLYDYCGQGTQVTVSS", "polyreactivity (PSR sort gate)": "high polyreactivity"}
{"biopolymer.sequence": "QVQLVESGGGLFQAGGSLRVSCAASGRTFRVYVMGSYRQAPGKERELVAAIRASGGITYYADSVKGRFTLSRDTAKNTVYLQMNSLKPEDTAVYYCAARPRTRYDYWGQGTQVTVSS", "polyreactivity (PSR sort gate)": "high polyreactivity"}
